system: A549; test: NCI tumour cell line growth inhibition, 48 h
The source made the active and inactive calls. Rule as the data show it: active = GI50 up to about 1.1 µM and inactive = higher.
Classes used: T for active, F for inactive

compound	qualitative label
Cc1nc2ccc(N)cc2nc1O	F
Cc1ccc2c(c1)C1(C)OC(CC(N)C1O)O2 (stereo unspecified)	F
Cn1c2ccccc2c(=S)c2ccccc21	F
COc1ccc(C[C@H](N)C(=O)N2C[C@@H](CO)C[C@@H](n3cnc4c(N(C)C)ncnc43)C2)cc1	F
CSC1=C(SC)C(=O)c2cn(C)c(=O)cc2C1=O	F
NC1(C(=O)OCc2ccccc2)CCCC1	F
CO/N=C(\C(=O)Nn1cn[n+](CC(=O)[O-])c1)c1csc(N)n1	F
CCCC(=O)Nc1cc(/C=C/C(=O)N2CC(CCl)c3c2cc(O)c2[nH]cc(C)c32)n(C)c1 (stereo unspecified)	T
Cc1ccc(C(=O)O/N=C2/CCCCC2CN(C)C)cc1 (stereo unspecified)	F
CCN(CC)CCCC(C)Nc1ccnc2cc(Cl)ccc12 (stereo unspecified) [CHLOROQUINE PHOSPHATE]	F
CSc1cnc2ccccc2c1Sc1c[nH]c2ccccc2c1=O	F

----------
test system: SF-539; experiment: NCI tumour cell line growth inhibition, 48 h
Activity calls are given as the source filed them. No stated cut-off is given here; in the data, active = GI50 up to about 1.1 µM and inactive = higher.
Classes used: y = active, n = inactive

molecule	qualitative label
CCNC(=O)C(C)C1CCC2(C)C=CC(=O)C(C)=C2C1O (configuration not stated)	n
C1CNCCNCCNCCN1	n
CC(C)C(=O)OCC1CCCN2CCCCC12 (configuration not stated)	n
O=C(Nc1cccc([N+](=O)[O-])c1)C(=O)C(C(=O)c1ccccc1-c1ccccc1)C1OC(=O)c2ccccc21 (configuration not stated)	n
Brc1ccc(/N=C/C=C(\Nc2ccc(Br)cc2)C23CC4CC(CC(C4)C2)C3)cc1	n
CSCCC(NCc1c(O)ccc2c(-c3ccccc3)cc(=O)oc12)C(=O)O (configuration not stated)	n
COc1ccc(CNc2nc(NCc3ccc(OC)cc3)nc(NC(C)C)n2)cc1	n
c1ccc2cc(-c3cc4ccccc4s3)ccc2c1	n
CN(C)c1cccc(-c2cc(=S)c3cc4c(cc3[nH]2)OCO4)c1	n
CCc1c(O)nc(Nc2nc3ccccc3[nH]2)[nH]c1=O	n
Cc1ccc(C[P+]2(c3ccccc3)CCCCC2)cc1.[O-][Cl+3]([O-])([O-])[O-]	n
O=[N+]([O-])C(=C(Nc1ccccc1)Nc1ccccc1)/C(Cl)=C(\Cl)Br	n
COc1ccc2c(c1)OCC1Cc3cccc(OC)c3OC21 (configuration not stated)	n
c1ccc2[nH]c3nc4ccccc4c-3cc2c1	y
COC(=O)[C@@H]1C=C[C@H](OC2OC(COC(C)=O)C(OC(C)=O)C(OC(C)=O)C2OC(C)=O)n2c(=O)c3ccccc3c(=O)n21 (some centres not stated)	n
COc1ccc(Cc2c(=O)[nH]nc3ccccc23)cc1	n
O=C1COc2cc3c(cc2N1)SCCC(=O)N3	n
CCO[C@H]1C[C@@H](c2ccccc2)[C@]2(C)C[C@H](C(=O)OC)ON2O1	n
CCCCOP(=O)(OCCCC)C(NS(=O)(=O)c1ccccc1)(C(=O)OCC)C(F)(F)F (configuration not stated)	n
CSC(=S)c1ccc(C(=S)SC)cc1	n
COC(=O)c1cc2c(cc1Cl)Sc1nnc(Nc3ccccc3)n1S2(=O)=O	n
COc1cc2c(c3c1C=CCO3)C(=O)c1ccccc1C2=O	n

----------
Read-out record for HCT-15: GI50

molecule	GI50
NCC(=O)C(O)C(O)C(O)CO (configuration not stated)	> 100 µM
CC(CC(C)(C)[N+](C)(C)C)[N+](C)(C)C (configuration not stated)	> 100 µM
Cc1cc(O)c2c3c(ccc2c1)C(=O)c1c(O)cccc1C3=O [TETRANGULOL]	1.92 µM
C=C(C)C(=O)OC1C[C@H](COC(C)=O)C2CC=C(C)C2C2OC(=O)C(=C)[C@H]12 (some centres not stated)	1.91 µM
Nc1ncnc2c1nnn2C1OC(CO)C(O)C1O (configuration not stated)	2.54 µM
CN(C)/C=N/n1c2ccccc2c2ccccc21	> 100 µM
Brc1ccc(/N=C/C=C(\Nc2ccc(Br)cc2)C23CC4CC(CC(C4)C2)C3)cc1	6.34 µM
[N-]=[N+]=CC(=O)CCC(N)C(=O)O (configuration not stated)	0.815 µM
COC1CC(OS(=O)(=O)c2ccc(C)cc2)C(OS(=O)(=O)c2ccc(C)cc2)C(COS(=O)(=O)c2ccc(C)cc2)O1 (configuration not stated)	5.35 µM
O=C1CS(=O)(=O)C(c2cccc(Oc3ccccc3)c2)N1C1CC1 (configuration not stated)	30.3 µM
COc1cccc2c1N[S@](=O)S2	82.4 µM
CSc1nc(SC)c2ncn(C3CC(Oc4ccc(C)cc4)C(COc4ccc(C)cc4)O3)c2n1 (configuration not stated)	> 100 µM
COc1ccc(Cc2c(=O)[nH]nc3ccccc23)cc1	> 100 µM
O=C1C2SC34c5c2c2ccccc2n5CCC3CCCN14 (configuration not stated)	> 100 µM
FC1OC2OC1C(OCc1ccccc1)C(OCc1ccccc1)C2OCc1ccccc1 (configuration not stated)	35.7 µM
NC1CC(=O)c2ccccc21 (configuration not stated)	> 100 µM
Cc1ccc(C(=O)O/N=C2/CCCCC2CN(C)C)cc1 (configuration not stated)	> 100 µM
CC(C)(C)[Si](C)(C)OCCCC#CCO	> 100 µM
CC(=O)OCC1OC(SC2=N/C(=C\c3cc4c(=O)c5ccccc5sc4s3)C(=O)N2c2ccccc2)C(OC(C)=O)C(OC(C)=O)C1OC(C)=O (configuration not stated)	> 100 µM
COC(=O)Cc1cc(=O)[nH]c2c1C(=O)CCC2	> 100 µM
COc1cc2c(cc1O)NC(=O)[C@@H]1C[C@@H](O)CN1C2=O	50.7 µM
CC(C)(CO)NC(=O)c1cccs1	> 100 µM
COc1cc2c(oc(=O)c3cc4cc([Si](C)(C)C)oc4c(OC)c32)c2cccc(O)c12	> 100 µM
O=NN(CCCl)C(=O)Nc1ccc(Cl)c(Cl)c1	> 71.6 µM
N=C1/C(=C/c2ccco2)C(=O)N=C2SC=NN12	> 100 µM
COC(=O)Nc1nc2cc(Oc3ccc4nc(NC(=O)OC)[nH]c4c3)ccc2[nH]1	1.28 µM
Oc1c(Br)cc(/C=C/c2cccc(/C=C/c3cc(Br)c(O)c(Br)c3)n2)cc1Br	6.22 µM
Cn1c(N)nc(=O)c2c1N(C1OC(CO)C(O)C1O)CN2Cc1ccccc1 (configuration not stated)	> 100 µM
COC(=O)[C@@H]1[C@H](OC(C)=O)CCC2[C@@]3(C[C@@H](c4ccoc4)O[C@@H]3OC)[C@H](C)CC[C@]21C(=O)OC (some centres not stated)	> 25 µM
Nc1nc(CC2(O)CCCCC2)cc(-c2ccccc2)n1	> 43.9 µM
N#C/C(C(=O)NCc1ccccc1)=C(/N)N1CCCC1	> 100 µM
Cc1ccccc1/C=N/C12CC3CC(CC(C3)C1)C2	> 100 µM
CCC(=O)n1c(=O)n(-c2ccc([N+](=O)[O-])cc2)c(=O)n1C(=O)CC	> 100 µM
CNc1ccc(C(=O)CC(O)CCC(C)C2OC(=O)CC(O)CC(=O)CC(O)CC(O)CC(O)CC(O)CC3(O)CC(O)C(C(=O)NCCN(C)C)C(CC(OC4OC(C)C(O)C(NC(=O)CN5CCN(C)CC5)C4O)\C=C/C=C\C=C/C=C/C=C/C=C\C=C/C2C)O3)cc1 (configuration not stated)	6.18 µM
Cc1ccc(-n2cc(-c3ccc(Cl)cc3)c3c(NNC(=S)NCc4ccccc4)ncnc32)cc1	6.08 µM
O=[N+]([O-])C(=C(Nc1ccccc1)Nc1ccccc1)/C(Cl)=C(\Cl)Br	11.9 µM
CC(C)C(=O)OCC1CCCN2CCCCC12 (configuration not stated)	53 µM
CCCCCCC(CCl)c1sc(-c2csc(CCNC(=O)OC(C)(C)C)n2)nc1C(=O)OC (configuration not stated)	14.1 µM
COc1cc2cc(C(=O)N3CC(CCl)c4ccc([N+](C)(C)Cc5ccc([N+](=O)[O-])cc5)cc43)[nH]c2c(OC)c1OC (configuration not stated)	3.2 µM
O=C1/C(=C/c2c(Cl)[nH]c3ccccc23)c2ccccc2N1c1ccccc1	3.14 µM
Nc1nc(SCc2ccccc2Cl)c2ncn(C3OC(CO)C(O)C3O)c2n1 (configuration not stated)	> 100 µM
Nc1cccc2cc(Cl)cnc12	> 100 µM

----------
GI50 values for the compounds below.
system: OVCAR-8; assay: NCI tumour cell line growth inhibition, 48 h
Calls of active or inactive are those of the source. Rule as the data show it: active = GI50 up to about 1.1 µM and inactive = higher.

compound	GI50
CC(=O)Oc1c2c(c(O)c3ccccc13)C(n1cnc3c(ncn3C3OC(CO)C4OC(C)(C)OC43)c1=N)CCC2 (stereo not given)	11.2 µM (inactive)
CCSc1[nH]c(Nc2nc(-c3ccccc3)n(-c3ccccc3)n2)c(C(N)=O)c1C(N)=O	6.64 µM (inactive)
CC(=O)NC(CCCN(Cc1ccccc1)C(=O)N(C)N=O)C(=O)NCc1ccccc1 (stereo not given)	> 100 µM (inactive)
COc1ccc(/C(Cl)=C(\C=O)c2cc(OC)c(OC)c(OC)c2)cc1OC	17.8 µM (inactive)
COc1cc2c(cc1OC)C(=O)/C(=C/c1ccccc1)CC2	45.5 µM (inactive)

// provenance: ChEMBL document CHEMBL1201862
